Values from patent US11702409B2

target: KRasG12C (M1-K169, biotinylated on the N-terminus) (Homo sapiens (Human), UniProt P01116, G12C); test: Covalent competition assay (scintillation proximity assay, competition with radiolabeled covalent probe Compound B); assay type: binding; settings: in vitro KRASG12C activity; 10 nM KRasG12C:GDP, 25 nM radio-ligand and 475 nM unlabelled ligand, incubated 2 hours; read-out: Covalent Competition Assay IC50
Give IC50 for every item shown.
Answer in nM, number only, no unit symbol.

Summary for this compound, C=CC(=O)N1CC2(CC(n3nc(-c4ccc5nc(NC)ncc5c4)c(-c4c(Cl)c(C)cc5[nH]ncc45)c3C)C2)C1 (single isomer, unassigned) [Example 40a] : IC50 is 99

Summary for this compound, C=CC(=O)N1CC2(CC(n3nc(-c4ccc5nn(CCOCCOC)cc5c4)c(-c4c(Cl)c(C)cc5[nH]ncc45)c3C)C2)C1 (single isomer, unassigned) [Example 43a] : IC50 is 10

Summary for this compound, C=CC(=O)N1CC2(CC(n3nc(-c4ccc5nn(CCOC)cc5c4)c(-c4c(Cl)c(C)cc5[nH]nc(N)c45)c3C)C2)C1 (single isomer, unassigned) [Example 69a] : IC50 is 9

---

molecular target: KRasG12C (M1-K169, biotinylated on the N-terminus) (Homo sapiens (Human), UniProt P01116, G12C); experiment: Covalent competition assay (scintillation proximity assay, competition with radiolabeled covalent probe Compound B); type: binding; details: in vitro KRASG12C activity; 10 nM KRasG12C:GDP, 25 nM radio-ligand and 475 nM unlabelled ligand, incubated 2 hours; read-out: Covalent Competition Assay IC50
Give IC50 for every item shown.
Answer in µM, number only, no unit symbol.

Summary for this compound, C=CC(=O)N1CC2(CC(n3nc(-c4ccc5ncnn5c4)c(-c4c(Cl)c(C)cc5[nH]ncc45)c3C)C2)C1 (single isomer, unassigned) [Example 23b] : IC50 is 13.9

Summary for this compound, C=CC(=O)N1CC2(CC(n3nc(-c4ccc5cn[nH]c5c4)c(-c4c(Cl)c(C)cc5[nH]ncc45)c3C)C2)C1 [Example 14] : IC50 is 0.31

Summary for this compound, C=CC(=O)N1CC2(CC(n3nc(-c4ccccc4)c(-c4c(Cl)c(C)cc5[nH]ncc45)c3C)C2)C1 (single isomer, unassigned) [Example 26a] : IC50 is 0.043

Summary for this compound, C=CC(=O)N1CC2(CC(n3nc(-c4ccc(C(=O)NCCOC)cc4)c(-c4c(Cl)c(C)cc5[nH]ncc45)c3C)C2)C1 (single isomer, unassigned) [Example 62b] : IC50 is 19.3

Summary for this compound, C=CC(=O)N1CC2(CC(n3nc(-c4ccc(C(=O)NCCOC)nc4)c(-c4c(Cl)c(C)cc5[nH]ncc45)c3C)C2)C1 (single isomer, unassigned) [Example 64b] : IC50 is 24.5

---

biological target: KRasG12C (M1-K169, biotinylated on the N-terminus) (Homo sapiens (Human), UniProt P01116, G12C); assay: Covalent competition assay (scintillation proximity assay, competition with radiolabeled covalent probe Compound B); assay type: binding; conditions: in vitro KRASG12C activity; 10 nM KRasG12C:GDP, 25 nM radio-ligand and 475 nM unlabelled ligand, incubated 2 hours; read-out: Covalent Competition Assay IC50
pIC50: −log10 of the molar value.
Mark yes (1) for reported pIC50 of 5 or greater; mark no (0) for anything smaller.

Input line: Check if pIC50 >= 5 (inclusive). Item: C=CC(=O)N1CC2(CC(n3nc(-c4ccc5c(c4)CC(=O)N5C)c(-c4c(Cl)c(C)cc5[nH]ncc45)c3C)C2)C1 (single isomer, unassigned) [Example 24b]
Output line: no (0)

Input line: Check if pIC50 >= 5 (inclusive). Item: C=CC(=O)N1CC2(CC(n3nc(-c4ccc(C(=O)O)cc4)c(-c4c(Cl)c(C)cc5[nH]ncc45)c3C)C2)C1 (single isomer, unassigned) [Example 68b]
Output line: yes (1)

Input line: Check if pIC50 >= 5 (inclusive). Item: C=CC(=O)N1CC2(CC(n3nc(-c4cccc5c4cnn5C)c(-c4c(Cl)c(C)cc5[nH]ncc45)c3C)C2)C1 (single isomer, unassigned) [Example 29b]
Output line: no (0)

Input line: Check if pIC50 >= 5 (inclusive). Item: C=CC(=O)N1CC2(CC(n3nc(-c4ccc(C(=O)NCCOC)c(F)c4)c(-c4c(Cl)c(C)cc5[nH]ncc45)c3C)C2)C1 (single isomer, unassigned) [Example 63b]
Output line: no (0)

Input line: Check if pIC50 >= 5 (inclusive). Item: C=CC(=O)N1CC2(CC(n3nc(-c4ccc5nn(CCOC)cc5c4)c(-c4c(Cl)c(C)cc5[nH]nc(N)c45)c3C)C2)C1 (single isomer, unassigned) [Example 69b]
Output line: yes (1)

Input line: Check if pIC50 >= 5 (inclusive). Item: C=CC(=O)N1CC2(CC(n3nc(-c4c(C)cncc4C)c(-c4c(Cl)c(C)cc5[nH]ncc45)c3C)C2)C1 (single isomer, unassigned) [Example 74a]
Output line: yes (1)

Input line: Check if pIC50 >= 5 (inclusive). Item: C=CC(=O)N1CC2(CC(n3nc(-c4ccccc4)c(-c4c(Cl)c(C)cc5[nH]ncc45)c3C)C2)C1 (single isomer, unassigned) [Example 26b]
Output line: no (0)

Input line: Check if pIC50 >= 5 (inclusive). Item: C=CC(=O)N1CC2(CC(n3nc(-c4ccc5c(c4)ncn5C)c(-c4c(Cl)c(C)cc5[nH]ncc45)c3C)C2)C1 (single isomer, unassigned) [Example 30b]
Output line: no (0)

Input line: Check if pIC50 >= 5 (inclusive). Item: C=CC(=O)N1CC2(CC(n3nc(-c4ccc(C(=O)NCCN(C)C)cc4)c(-c4c(Cl)c(C)cc5[nH]ncc45)c3C)C2)C1 (single isomer, unassigned) [Example 65b]
Output line: no (0)

Input line: Check if pIC50 >= 5 (inclusive). Item: C=CC(=O)N1CC2(CC(n3nc(-c4ccc5c(c4)ncn5C)c(-c4c(Cl)c(C)cc5[nH]ncc45)c3C)C2)C1 (single isomer, unassigned) [Example 30a]
Output line: yes (1)

Input line: Check if pIC50 >= 5 (inclusive). Item: C=CC(=O)N1CC2(CC(n3nc(-c4cccnc4)c(-c4c(Cl)c(C)cc5[nH]ncc45)c3C(F)F)C2)C1 (single isomer, unassigned) [Example 87b]
Output line: no (0)

Input line: Check if pIC50 >= 5 (inclusive). Item: C=CC(=O)N1CC2(CC(n3nc(-c4cc(C)nn4CCN(C)C)c(-c4c(Cl)c(C)cc5[nH]ncc45)c3C)C2)C1 (single isomer, unassigned) [Example 92b]
Output line: no (0)

Input line: Check if pIC50 >= 5 (inclusive). Item: C=CC(=O)N1CC2(CC(n3nc(-c4ccc(OC)nc4)c(-c4c(Cl)c(C)cc5[nH]ncc45)c3C)C2)C1 [Example 78a]
Output line: yes (1)

Input line: Check if pIC50 >= 5 (inclusive). Item: C=CC(=O)N1CC2(CC(n3nc(-c4ccn5ccnc5c4)c(-c4c(Cl)c(C)cc5[nH]ncc45)c3C)C2)C1 (single isomer, unassigned) [Example 33a]
Output line: yes (1)

Input line: Check if pIC50 >= 5 (inclusive). Item: C=CC(=O)N1CC2(CC(n3nc(-c4cnc5c(cnn5C)c4)c(-c4c(Cl)c(C)cc5[nH]ncc45)c3C)C2)C1 (single isomer, unassigned) [Example 37b]
Output line: no (0)

Input line: Check if pIC50 >= 5 (inclusive). Item: C=CC(=O)N1CC2(CC(n3nc(-c4ccc5c(cnn5CCO)c4)c(-c4c(Cl)c(C)cc5[nH]ncc45)c3C)C2)C1 (single isomer, unassigned) [Example 83a]
Output line: yes (1)

Input line: Check if pIC50 >= 5 (inclusive). Item: C=CC(=O)N1CC2(CC(n3nc(-c4cncnc4)c(-c4c(Cl)c(Cl)cc5[nH]ncc45)c3C(F)F)C2)C1 (single isomer, unassigned) [Example 86a]
Output line: yes (1)

Input line: Check if pIC50 >= 5 (inclusive). Item: C=CC(=O)N1CC2(CC(n3nc(-c4ccc(N5CCS(=O)(=O)CC5)cc4)c(-c4c(Cl)c(C)cc5[nH]ncc45)c3C)C2)C1 (single isomer, unassigned) [Example 50a]
Output line: yes (1)

Input line: Check if pIC50 >= 5 (inclusive). Item: C=CC(=O)N1CC2(CC(n3nc(-c4ccncc4C)c(-c4c(Cl)c(C)cc5[nH]ncc45)c3C)C2)C1 (single isomer, unassigned) [Example 49b]
Output line: yes (1)
